# testSummary: Metabolic stability in cynomolgus monkey liver microsomes
# Assay type: in vitro ADME
# cond: male, pH 7.4, Cyno liver microsomes, 1 mg/mL, read-out: Microsomal Stability (% Remaining at 30 min)
propertyMeasured: remaining at 0.5 h, 1 μM (%)

[[record]]
compound = "Cc1cc(C(=O)O)nc(N2C[C@H]3C[C@@H](c4ccccc4C(F)(F)F)C[C@H]3C2)n1 [BPN-14136]"
readoutunit = "%"
numericreadout = 95


----------
# testSummary: Single dose pharmacokinetic study in cynomolgus monkey
# Type: in vivo
# cond: male, cynomolgus monkey, plasma, po; Cyno, 5.0 mg kg^−1 p.o., mean ± SD, n=3
# Procedure: Pharmacokinetic studies were conducted in male beagle dogs and male cynomolgus monkeys at SRI International, Menlo Park, CA. […] Following protein extraction with acetonitrile, compound concentrations in plasma were measured by LC-MS/MS. The plasma drug level data were analyzed using WinNonlin software package; Model 201 (for i.v. bolus administration);was used for the analysis of i.v. data, and Model 200 (for extravascular administration) was used for the analysis of the p.o. data. […]
propertyMeasured: Tmax (h)

[[record]]
molecule = "Cc1cc(C(=O)O)nc(N2C[C@H]3C[C@@H](c4ccccc4C(F)(F)F)C[C@H]3C2)n1 [BPN-14136]"
numericreadout = 1.67

